- Tested on: NCI-H226
- Experiment Description: NCI tumour cell line growth inhibition, 48 h
The source made the active and inactive calls. No stated cut-off is given here; in the data, active = GI50 up to about 1.1 µM and inactive = higher.
Use one of these outcomes when replying: True (active), False (inactive)

Some solved entries appear below for comparison.
CCN(CC)CCCNC(=O)C1COc2cc(-c3cc(=O)c4ccccc4o3)ccc2O1 (stereo not given)
False
Cc1cn(CC2=NCCCN2)c(=O)[nH]c1=O
False
Oc1cc(-c2cccc(OC(F)(F)F)c2)nc2cc3c(cc12)OCO3
True
COc1cc([C@@H]2c3cc4c(cc3C(N)C3COC(=O)[C@@H]32)OCO4)cc(OC)c1O (stereo not given in full)
True

Okay, next one:
Ask: Tell me the assay call for `O=[N+]([O-])c1cc2c([N+](=O)[O-])cccc2o1` please.
Result: False

###

- System: NCI-H460
- Experiment Description: NCI tumour cell line growth inhibition, 48 h
Calls of active or inactive are those of the source. Cut-off read from the data, not from the text of the source: active = GI50 up to about 1.1 µM and inactive = higher.
Use one of these outcomes when replying: active, inactive

Some solved entries appear below for comparison.
Cc1cc2nc3c(=O)n(C)c(=O)nc-3n(-c3ccc(Cl)cc3)c2cc1C
inactive
O=C1c2ccccc2C(=O)c2c(NC(=O)C(Cl)CCl)cccc21 (stereo unspecified)
inactive
CC(C)(C)NC(=O)C12C3C4C1C1C2C3C41I (stereo unspecified)
inactive
N[C@H]1CCCC[C@@H]1N1C(=O)c2ccccc2C1(O)c1ccc(Cl)cc1 (stereo partly specified)
inactive
CCOC(=O)C1=CC(C)(C(=O)OCC)Nc2c(nc(SC)n(C)c2=O)N1 (stereo unspecified)
inactive

Ask: Tell me the assay call for `CCOC(=O)/C(C(=O)c1ccc[nH]1)=C1/CCCN1C` please.
Result: inactive

Ask: Proceed to `CCCCCCCCCCCCCC/C(C(=O)OC)=C(/O)C(=O)OCC`
Result: inactive

###

Measured GI50 accompanies every entry in the list below.
- System: OVCAR-5
- Experiment Description: NCI tumour cell line growth inhibition, 48 h
Calls of active or inactive are those of the source. No stated cut-off is given here; in the data, active = GI50 up to about 1.1 µM and inactive = higher.

As a guide, the following entries are already answered.
c1ccc(C(NC2CCCCC2NCCNC2CCCCC2NC(c2ccccc2)(c2ccccc2)c2ccccc2)(c2ccccc2)c2ccccc2)cc1 (stereo not given)
> 100 µM (inactive)
COc1ccc(C2c3cc4c(cc3OC(N3CCOCC3)C2C)OCO4)cc1 (stereo not given)
34.8 µM (inactive)

Ask: So what's the measured GI50 for this one? `CCOC(=O)C(=Cc1ccccc1Br)C(=O)OCC`
Result: 6.5 µM (inactive)

Ask: Proceed to `N#C/C(=C\c1ccc(CP(=O)(O)O)cc1)C(N)=O`
Result: > 100 µM (inactive)

Ask: Proceed to `O=C(NNS(=O)(=O)c1ccc(Br)cc1)c1ccc(Cl)cc1NC(=O)C12CC3CC(CC(C3)C1)C2`
Result: 18.2 µM (inactive)

Ask: Proceed to `COc1ccc(-c2cc(-c3ccc(Nc4ccnc5cc(C(F)(F)F)ccc45)cc3)[nH]c(=O)c2C#N)cc1`
Result: > 66.5 µM (inactive)

Ask: Proceed to `Cc1cn([C@H]2C[C@](C)(CO)N(C)O2)c(=O)[nH]c1=O`
Result: > 100 µM (inactive)

Ask: Proceed to `Cn1c(N)c(Cc2ccc(Cl)cc2)c(=O)[nH]c1=O`
Result: > 100 µM (inactive)

Ask: Proceed to `CN(Cc1ccccc1)/C(=N\C#N)N(Cc1ccccc1)Cc1ccccc1`
Result: 21.1 µM (inactive)

Ask: Proceed to `CC1(C)COC(c2ccc(C(=O)c3ccc(Cl)cc3)cc2)=N1`
Result: > 100 µM (inactive)
